Data provenance: the Immune Epitope Database (IEDB)

# MEASURED ON: HLA-A*02:19
# ASSAY COMMENT: IEDB peptide-MHC binding, purified MHC/direct/fluorescence; filed as Kd, often an IC50 or EC50 that approximates it; bounds were set here for any values at or beyond the usual limits of such assays
# SETTINGS: source organism: Coxiella burnetii Q321
MEASURED PARAMETER: Kd (nM)

YQLGDYFFV ... 2

###

# MEASURED ON: HLA-B*07:02
# ASSAY COMMENT: IEDB peptide-MHC binding, purified MHC/competitive/fluorescence; filed as Kd, often an IC50 or EC50 that approximates it; bounds were set here for any values at or beyond the usual limits of such assays
# SETTINGS: source organism: Escherichia coli 536
MEASURED PARAMETER: Kd

PPKYTPRPA ... ≥ 20 µM

###

# MEASURED ON: HLA-A*31:01
# ASSAY COMMENT: IEDB peptide-MHC binding, purified MHC/competitive/radioactivity; filed as Kd, often an IC50 or EC50 that approximates it; bounds were set here for any values at or beyond the usual limits of such assays
# SETTINGS: source organism: Lassa virus GA391
pKd: −log10 of the molar value.
MEASURED PARAMETER: pKd

ENAVWDQFK ... ≤ 4.11

###

# MEASURED ON: HLA-C*03:03
# ASSAY COMMENT: IEDB peptide-MHC binding, purified MHC/direct/fluorescence; filed as Kd, often an IC50 or EC50 that approximates it; bounds were set here for any values at or beyond the usual limits of such assays
# SETTINGS: source organism: Mycobacterium tuberculosis variant bovis BCG str. Pasteur 1173P2
pKd: −log10 of the molar value.
MEASURED PARAMETER: pKd

VAYHFHEPL ... ≥ 9.00

###

# MEASURED ON: HLA-A*24:02
# ASSAY COMMENT: IEDB peptide-MHC binding, purified MHC/competitive/radioactivity; filed as Kd, often an IC50 or EC50 that approximates it; bounds were set here for any values at or beyond the usual limits of such assays
# SETTINGS: source organism: Mammarenavirus whitewaterense
MEASURED PARAMETER: Kd

IYQPESQKF ... 0.0335 µM

###

# MEASURED ON: HLA-A*30:01
# ASSAY COMMENT: IEDB peptide-MHC binding, purified MHC/competitive/fluorescence; filed as Kd, often an IC50 or EC50 that approximates it; bounds were set here for any values at or beyond the usual limits of such assays
# SETTINGS: source organism: Encephalitozoon cuniculi GB-M1
MEASURED PARAMETER: Kd

GGRKLKLTK ... 0.246 µM

###

# MEASURED ON: HLA-B*15:42
# ASSAY COMMENT: IEDB peptide-MHC binding, purified MHC/competitive/fluorescence; filed as Kd, often an IC50 or EC50 that approximates it; bounds were set here for any values at or beyond the usual limits of such assays
# SETTINGS: source organism: Mycobacterium tuberculosis H37Ra
MEASURED PARAMETER: Kd

LEMQHLISL ... ≥ 5 µM

###

# MEASURED ON: HLA-A*30:02
# ASSAY COMMENT: IEDB peptide-MHC binding, purified MHC/competitive/radioactivity; filed as Kd, often an IC50 or EC50 that approximates it; bounds were set here for any values at or beyond the usual limits of such assays
# SETTINGS: source organism: Mammarenavirus brazilense
Kd values, listed per item
MEASURED PARAMETER: Kd (µM)

SLTEEFYHSY ... 0.225
VTDVTLLMA ... 0.423
GLNISGYNY ... 0.0957
